Biological target: GST-FKH-FoxA2 (Rattus norvegicus (rat; cloned from genomic DNA)) (UniProt P32182)
Sequence (P32182 145-290, looked up): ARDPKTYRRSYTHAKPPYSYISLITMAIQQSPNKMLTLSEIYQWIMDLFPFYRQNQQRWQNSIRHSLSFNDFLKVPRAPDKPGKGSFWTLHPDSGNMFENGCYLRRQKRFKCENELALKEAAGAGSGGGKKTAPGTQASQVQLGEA
Test: competition EMSA
Conditions: 25 mM HEPES pH 7.6, 150 mM KCl, 0.2 mM EDTA, 0.2 mM EGTA, 10% glycerol, 1 mM DTT, 3 ug protein, 1 ng 32P-TTR probe, 2/5/20 ng competitor, on ice 15 min; 4% …
RECORDED_METRIC: binding signal (EMSA score (TTR=1))
One number for each entry.

CONSTRUCT_SEQUENCE: CAGTGGCATCCGACTGATTTACTGAGCTGGTTCC (double strand) [non-site chr7:140707466 b]
TARGET_SYSTEM: GST-FKH-FoxA2 (Rattus norvegicus (rat; cloned from genomic DNA)) (UniProt P32182)
VALUE: 0
--
CONSTRUCT_SEQUENCE: CAGTAGGTTTCTCTATTGACTCTATTGCCT (double strand) [FoxA BS chr11:45798706]
TARGET_SYSTEM: GST-FKH-FoxA2 (Rattus norvegicus (rat; cloned from genomic DNA)) (UniProt P32182)
VALUE: 0.49
--
CONSTRUCT_SEQUENCE: CAGTCCAGGGGACCTGTTTACCTTACATAG (double strand) [FoxA BS chr17:45901267]
TARGET_SYSTEM: GST-FKH-FoxA2 (Rattus norvegicus (rat; cloned from genomic DNA)) (UniProt P32182)
VALUE: 0.7

Would you mind listing binding signal (EMSA score (TTR=1)) for each of the following sequences?
1. CAGTCTGCCCTGCTGTTTACCAGCTGGAGA (double strand) [FoxA BS chr3:94456673 a]
2. CAGTTCACCTGAGGGTGTGTACACAGTCTCTCAG (double strand) [FoxA BS chr7:100410756]
3. CAGTTATCAATGTTTGTTTACCTTGTGGCT (double strand) [FoxA BS chrX:6878436]
4. CAGTATGTGTTGTTGTTGACTTTAAGGTCG (double strand) [FoxA BS chr9:107420590]

Reply |
1. 0.29
2. 0.56
3. 1.65
4. 0.93

----------
Biological target: GST-FKH-FoxA2 (Rattus norvegicus (rat; cloned from genomic DNA)) (UniProt P32182)
Sequence (P32182 145-290, looked up): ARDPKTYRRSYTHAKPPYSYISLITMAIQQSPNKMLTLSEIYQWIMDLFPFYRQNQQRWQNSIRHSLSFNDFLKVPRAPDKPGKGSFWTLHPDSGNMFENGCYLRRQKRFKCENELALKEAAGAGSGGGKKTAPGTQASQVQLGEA
Assay: competition EMSA
Conditions: 25 mM HEPES pH 7.6, 150 mM KCl, 0.2 mM EDTA, 0.2 mM EGTA, 10% glycerol, 1 mM DTT, 3 ug protein, 1 ng 32P-TTR probe, 2/5/20 ng competitor, on ice 15 min; 4% …
Please respond with reported binding signal (EMSA score (TTR=1)) for every item in the list.
Numbers only.

CONSTRUCT_SEQUENCE: CAGTCCCTTCCCTTATTTACATTCCCGAGA (double strand) [FoxA BS chr7:140707466 a]
binding signal (EMSA score (TTR=1)): 1.13

Would you mind listing binding signal (EMSA score (TTR=1)) for each of the following sequences?
1. CAGTGCGTGCATTGGTGTTCGCTCAGAGCGGGAC (double strand) [non-site chr6:5446118]
2. CAGTGACAACCAATGTTGACTTAAAACCTT (double strand) [FoxA BS chr4:61847631]
3. CAGTAGAGGTCTTCCTCTTTGCCCATGTTGTGGG (double strand) [non-site chr7:26648074]
4. CAGTTGCTGGCCTAATGTGGACACAGGGGGTTCC (double strand) [FoxA BS chr3:83135377]

Reply |
[0, 0.82, -0.16, 0.64]

Reference source: paper PMC4234207
